The entries that follow carry IC50 values tested on Geranylgeranyl pyrophosphate synthase (Homo sapiens, UniProt O95749), drawn from several published reports.
Biological target: Geranylgeranyl pyrophosphate synthase (Homo sapiens, UniProt O95749)
Sequence (O95749 whole entry): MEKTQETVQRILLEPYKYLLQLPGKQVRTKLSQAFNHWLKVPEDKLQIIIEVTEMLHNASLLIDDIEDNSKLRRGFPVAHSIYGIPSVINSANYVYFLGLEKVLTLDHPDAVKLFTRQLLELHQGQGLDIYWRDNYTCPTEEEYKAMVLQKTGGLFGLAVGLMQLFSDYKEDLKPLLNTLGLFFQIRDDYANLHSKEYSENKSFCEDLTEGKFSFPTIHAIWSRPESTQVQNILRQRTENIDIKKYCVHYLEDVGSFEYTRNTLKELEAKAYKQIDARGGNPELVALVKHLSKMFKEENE

smiles_representation | subject_of_test | IC50
CC(=CCn1cc(CC(P(=O)(O)O)P(=O)(O)O)nn1)CC/C=C(\C)CO | Geranylgeranyl pyrophosphate synthase (Homo sapiens, UniProt O95749) | 11.6 µM
O=P(O)(O)C(Nc1ncnc2sccc12)P(=O)(O)O | Geranylgeranyl pyrophosphate synthase (Homo sapiens, UniProt O95749) | > 1 µM
CC(Cn1cnc2ccccc21)(P(=O)(O)O)P(=O)(O)O | Geranylgeranyl pyrophosphate synthase (Homo sapiens, UniProt O95749) | > 100 µM
O=C(Nc1cccc(-c2nc(NC(P(=O)(O)O)P(=O)(O)O)c3ccsc3n2)c1)c1ccc(F)cc1 | Geranylgeranyl pyrophosphate synthase (Homo sapiens, UniProt O95749) | 0.025 µM
COc1ccc(C(=O)Nc2cccc(-c3nc(NC(P(=O)(O)O)P(=O)(O)O)c4ccsc4n3)c2)cc1Br | Geranylgeranyl pyrophosphate synthase (Homo sapiens, UniProt O95749) | 0.036 µM

Moving on to the next compound.
Write down measured IC50 (Geranylgeranyl pyrophosphate synthase (Homo sapiens, UniProt O95749)) for this compound. `O=P(O)(O)C(Cn1cnc2ccccc21)P(=O)(O)O`
20.5 µM
